# TEST SYSTEM: Biotin QP004.3 (biotin-PDL1-FC) (human) (UniProt Q9NZQ7)
# Sequence (Q9NZQ7 19-238 limits assumed): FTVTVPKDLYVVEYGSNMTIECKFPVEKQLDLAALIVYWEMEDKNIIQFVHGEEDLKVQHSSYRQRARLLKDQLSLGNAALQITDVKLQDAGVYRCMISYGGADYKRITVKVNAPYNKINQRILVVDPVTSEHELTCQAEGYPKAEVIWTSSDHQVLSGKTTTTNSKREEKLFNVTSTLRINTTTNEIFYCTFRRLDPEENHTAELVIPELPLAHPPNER
# PROTOCOL DETAILS: binding ELISA, antibody coated, biotin-PDL1-FC titrated
OBSERVABLE: ELISA reading at 0.0062 µg/ml biotin-PDL1-FC
Give the figure only, with no unit attached.

For QP324 (Fc fusion, not shown: a dimerising Fc or GST) EVQLLESGGGLVQPGGSLRLSCAASGFTYGTYAMSWVRQAPGKGLEWVACIDIYGRTSYTDPVKGRFTISQDNSKNTLYLQMNSLRAEDTAVYYCAARDFGYCTASWVHEGFSRYWGQGTLVTVSS the binder record lists ELISA reading at 0.0062 µg/ml biotin-PDL1-FC as 0.15

For QP325 (Fc fusion, not shown: a dimerising Fc or GST) EVQLLESGGGLVQPGGSLRLSCAASGFTYGTYAMSWFRQAPGKGLEGVACIDIYGRTSYTDPVKGRFTISQDNSKNTLYLQMNSLRAEDTAVYYCAARDFGYCTASWVHEGFSRYWGQGTLVTVSS the binder record lists ELISA reading at 0.0062 µg/ml biotin-PDL1-FC as 1.32

For QP1166 (Fc fusion, not shown: a dimerising Fc or GST) QVQLVESGGDSVQPGGSLRLSCAASGFTYGTYAMSWFRQAPGKEREGVACIDIYGRTSYTDPVKGRFTISQDNAKNTLYLQMNSLKPEDTAMYYCAARDFGYCTASWVHEGFSRYWGQGTQVTVSS the binder record lists ELISA reading at 0.0062 µg/ml biotin-PDL1-FC as 1.55

For QP320 (Fc fusion, not shown: a dimerising Fc or GST) EVQLLESGGGLVQPGGSLRLSCAASGFTYGTYAMSWVRQAPGKGLEWVSCIDIYGRASYTDPVKGRFTISRDNSKNTLYLQMNSLRAEDTAVYYCAARDFGYCTASWVHEGFSRYWGQGTLVTVSS the binder record lists ELISA reading at 0.0062 µg/ml biotin-PDL1-FC as 0.108
